Target: GlcNAc(b1-2)[GlcNAc(b1-6)]Man(a1-6)[GlcNAc(b1-2)Man(a1-3)]Man(b1-4)GlcNAc(b1-4)[Fuc(a1-6)]GlcNAc
Assay: glycan array binding signal (z-score within array); higher = stronger binding
Details: glycan notation: IUPAC condensed, linker removed
The full list was thinned out, with the strongest signals kept by preference.
So I've got a bunch of binders here, and I need their glycan array binding signal (z-score) values.
Just the number, please, no unit attached.

Q: Quick one: glycan array binding signal (z-score) for HML-Native (Hypnea musciformis), P84871 (protein) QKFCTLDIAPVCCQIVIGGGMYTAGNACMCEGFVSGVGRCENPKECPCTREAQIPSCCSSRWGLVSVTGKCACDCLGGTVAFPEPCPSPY ?
Ans: 4.99

Q: Entry his-Lectin-24A (Drosophila melanogaster) (protein) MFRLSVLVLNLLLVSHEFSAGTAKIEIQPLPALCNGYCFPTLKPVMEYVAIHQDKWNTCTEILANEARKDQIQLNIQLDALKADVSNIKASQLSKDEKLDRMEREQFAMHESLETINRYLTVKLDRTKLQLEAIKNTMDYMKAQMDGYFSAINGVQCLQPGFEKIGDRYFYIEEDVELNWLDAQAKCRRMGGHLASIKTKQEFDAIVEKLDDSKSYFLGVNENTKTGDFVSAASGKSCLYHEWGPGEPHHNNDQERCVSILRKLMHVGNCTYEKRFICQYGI has what glycan array binding signal (z-score)?
Ans: 1.69

Q: Can you look up the measured glycan array binding signal (z-score) of SJA (Sophora japonica) (protein) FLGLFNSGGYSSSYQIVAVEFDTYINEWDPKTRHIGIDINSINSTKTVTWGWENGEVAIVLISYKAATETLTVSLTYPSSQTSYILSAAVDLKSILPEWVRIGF for me?
Ans: -0.375
